system: SK-MEL-2 melanoma; test: NCI tumour cell line growth inhibition, 48 h
endpoint-name: TGI (µM)
Quick reminder: number only, in µM, skip the unit.

Need TGI, item `CCCCCCCCCCCC[n+]1ccc2ccccc2c1`
3.88

Need TGI, item `COc1cc(-c2ccccc2N)c2cccnc2c1OC`
26.5

Need TGI, item `O=C(CCc1ccccc1)On1c(-c2ccccc2)nc2ccccc2c1=S`
37.5

Need TGI, item `CO[C@H]1C[C@@H]2CC[C@@H](C)[C@@](O)(O2)C(=O)C(=O)N2CCCC[C@H]2C(=O)O[C@H]([C@H](C)C[C@@H]2CC[C@@H](OCCO)[C@H](OC)C2)CC(=O)[C@H](C)C=C(C)[C@@H](O)[C@@H](OC)C(=O)[C@H](C)C[C@H](C)/C=C/C=C/C=C1C`
21.4

Need TGI, item NC(=S)c1c(N)n(C2OC(CO)C(O)C2O)c2ncnc(N)c12 (stereo unspecified)
1.07

Need TGI, item Cc1cc(=O)[nH]c(NN2C(Cl)C(=O)C2c2cccc(Cl)c2)n1 (stereo unspecified)
35.8

Need TGI, item `CCOC(=O)Oc1ccc2c(c1)c(=O)c1c(NCCN(CC)CC)ccc3nnn2c31`
27

Need TGI, item `COc1cc2nc3cc([N+](=O)[O-])ccc3c(NCCNCC(C)(C)O)c2cc1OC`
1.75

Need TGI, item N#CC1c2ccccc2C=CN1C(=O)N(c1ccccc1)c1ccccc1 (stereo unspecified)
13.6

====

system: OVCAR-4 ovarian; assay: NCI tumour cell line growth inhibition, 48 h
So I've got a bunch of molecules here, and I need their TGI values.

Need TGI, item NC(=O)NC1C(C(N)=O)N(Cc2ccccc2)C(=O)N1Cc1ccccc1 (centres undefined)
> 100 µM

Need TGI, item `CC1(C)C(=O)C(C)(C)C1=S`
> 100 µM

Need TGI, item `C/C(=C\c1csc(C)n1)[C@@H]1C[C@@H]2O[C@@H]2CCC[C@H](C)[C@H](O)[C@@H](C)C(=O)C(C)(C)[C@@H](O)CC(=O)O1`
> 100 µM

Need TGI, item CC(=O)C1=C(O)C2C3c4c[nH]c5cccc(c45)CC3C(C)(C)N2C1=O (centres undefined)
> 100 µM

Need TGI, item CC(C)(C)OC(=O)NCCCCC(NC(=O)c1ccccc1)C(N)=O (centres undefined)
> 100 µM

Need TGI, item `CC(C)(C)N(Cc1ccc2c(c1)OCO2)C(=O)/C=C\Sc1ccccc1`
> 100 µM

Need TGI, item `CO[C@H]1C[C@@H]2CC[C@@H](C)[C@@](O)(O2)C(=O)C(=O)N2CCCC[C@H]2C(=O)O[C@H]([C@H](C)C[C@@H]2CC[C@@H](OCCO)[C@H](OC)C2)CC(=O)[C@H](C)C=C(C)[C@@H](O)[C@@H](OC)C(=O)[C@H](C)C[C@H](C)/C=C/C=C/C=C1C`
17.1 µM

Need TGI, item `COc1cccc(/C=N/[N-]C(N)=O)c1[O-].[Cu+2].[OH3+].c1ccc(-c2ccccn2)nc1`
33.1 µM

Need TGI, item `CCn1c(-c2nonc2N)nc2cncc(C(=O)N3CC[C@H](N)C3)c21`
> 25 µM

Need TGI, item `C/C1=C\C=C(\C(C)C)CC/C(C(=O)O)=C\CC/C(C)=C/CC1`
> 100 µM

Need TGI, item `O=C(OCC(Cl)(Cl)Cl)O[C@@H]1CCCC1(c1ccccc1)c1ccccc1`
> 100 µM

Need TGI, item CCOC(=O)C1=C(C)N(c2ccc(OC)cc2)C2(O)C=CC(=O)C3=C(O)c4ccccc4C(=O)C312 (centres undefined)
10.9 µM

Need TGI, item c1ccc2c3c([nH]c2c1)C(c1ccc(C2NCCc4c2[nH]c2ccccc42)cc1)NCC3 (centres undefined)
2.53 µM

Need TGI, item `C(=C\N1CCCCC1)/c1nnnn1-c1ccccc1`
> 100 µM

Need TGI, item `CC(=O)NNc1nc(C)c(C(=O)NNC(=O)C(=O)Nc2ccc(Cl)cc2Cl)s1`
56.8 µM

Need TGI, item `O=C(CCc1ccccc1)On1c(-c2ccccc2)nc2ccccc2c1=S`
> 100 µM

Need TGI, item `COc1ccc2oc(=O)c(-c3csc(C)n3)cc2c1`
> 100 µM

Need TGI, item `CSC(=Nc1ccccc1)/N=C(\SCc1ccccc1)N(C)C`
2.43 µM

Need TGI, item `COc1nnc2ccc(N3CCC(c4ccc(OCCN5CCN(C)C(=O)[C@H]5C)cc4)CC3)nn12`
> 100 µM

Data origin: PubChem BioAssay (NCI)
